FYI, the data here is from PubChem BioAssay (NCI).

# protocol.summary: NCI Yeast Anticancer Drug Screen. Data for the cln2 rad14 strain (AID 165);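 note: 0% = growth equal to vehicle treated cultures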
# condition.parameters: S. cerevisiae cln2 rad14 strain, at 50.0 µM, active compounds read high
This is part of a sample that, as a whole, favours compounds with a hit. Of some 79,000 tested, about 15% had one in any assay.
Returns one of Y or N; Y when growth inhibition is >= 40%.

compound="C/C(=C/c1ccccc1)C(=O)C1C(c2ccccc2)CC(O)C(C)C1c1ccccc1 (stereo not given)" discrete_label=Y
compound=COc1cnn(-c2ccccc2)c(=O)c1SCc1ccc(Cl)c(Cl)c1 discrete_label=Y
compound=O=C(N/N=C/c1ccccc1)c1ccc([N+](=O)[O-])cc1 discrete_label=N
compound="Cc1c2c(c(O)c3c(O)cccc13)C(=O)C1(O)C(=O)C(C(N)=O)C(O)C(N(C)C)C1C2 (stereo not given)" discrete_label=Y

* * *

# protocol.summary: NCI Yeast Anticancer Drug Screen. Data for the bub3 strain (AID 167)
# condition.parameters: S. cerevisiae bub3 mutant strain, at 5.0 µM (retest, dose inferred, filed as 0.5), active compounds read high
Compounds without any hit were thinned out: in the full panel of roughly 79,000, 15% have a hit.
assay.metric: growth inhibition (%)

compound="CC(C)(C)N/N=C(\\C(=O)NC1=C(Cl)C(=O)c2ccccc2C1=O)C1C=CCS1(=O)=O (stereo unspecified)" recorded_number=0
compound="CC(C)C(NC(=O)/C=C\\c1ccccc1)C(=O)O (stereo unspecified)" recorded_number=-3
compound=N#CC(C#N)=C(c1ccccc1)c1ccccc1 recorded_number=-6
compound=Oc1ccc(/C=N/NC(=S)Nc2ccccc2)nc1 recorded_number=11
compound=COc1ccc(Cc2ccc(N)cc2)cc1 recorded_number=-66
compound=Cc1ccc(S(=O)(=O)Oc2ccc3oc4c(CO)ccc(NCCN(C)C)c4c(=O)c3c2)cc1 recorded_number=3
compound="OC1C2COc3nc4ccccc4n3C(O2)C1O (stereo unspecified)" recorded_number=-69
compound=CC(=O)Nc1ccc2c(c1)/C(=N/O)c1ccccc1-2 recorded_number=-3
compound="C[C-](O)O.O/C(=C\\[C-](O)c1ccccc1)c1ccccc1.O/C(=C\\[C-](O)c1ccccc1)c1ccccc1.[Nd+3] (stereo unspecified)" recorded_number=20
compound=C/C=c1/[nH]c(=O)/c(=C\c2ccccc2)[nH]c1=O recorded_number=-2
compound=NNCc1cc(Cl)c2cccnc2c1O recorded_number=-1

* * *

# protocol.summary: NCI Yeast Anticancer Drug Screen. Data for the sgs1 mgt1 strain (AID 161);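 note: 0% = growth of cultures given vehicle only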
# condition.parameters: S. cerevisiae sgs1 mgt1 strain, at 50.0 µM (retest, dose inferred, filed as 5.0)
The panel holds about 79,000 compounds, 15% with a hit somewhere; the sample as a whole holds those more often. Active and inactive are the calls of the source. Cut-off read from the data, not from the text of the source: active = growth inhibition above about 70%; inactive = the rest.
Labels: 1.0 (active), 0.0 (inactive)

compound="C=CCC(O)C(=O)OC1CC(C)CCC1C(C)(C)c1ccccc1 (stereo unspecified)" discrete_label=1.0
compound="CC(C(=O)O)c1c(-c2ccccc2)ccc2ccccc12 (stereo unspecified)" discrete_label=0.0
compound=N[C@H](C(=O)O)[C@@H]1CC(Cl)=NO1 discrete_label=1.0
compound="O=C(OCC1OC(c2nn[nH]n2)C(OC(=O)c2ccccc2)C1OC(=O)c1ccccc1)c1ccccc1 (stereo unspecified)" discrete_label=1.0
compound=O=C1CCC/C(c2ccccc2)=N\N=C/1c1ccccc1 discrete_label=0.0
compound=C=CCNC(=O)NC1=CSC2=NC(=O)C3(NN12)c1ccccc1-c1ccccc13 discrete_label=0.0
compound="CCCCOP(=O)(OCCCC)C(NS(=O)(=O)c1ccccc1)(C(=O)OCC)C(F)(F)F (stereo unspecified)" discrete_label=0.0
compound=CCN(CC)CCOC(=O)CCN1CC2CCC(CC2)C1 discrete_label=0.0
compound=O=C1/C(=C/c2ccccc2)CCCc2ccccc21 discrete_label=1.0
compound=CC(C)(N=Nc1ccc([N+](=O)[O-])cc1)[N+](=O)[O-] discrete_label=1.0
compound=COC(=O)c1cc(C)c2sc3ccccc3c2c1C discrete_label=0.0
compound=O=C(O)CCCCC1CCCCC1.[Cu+2] discrete_label=1.0
compound=c1ccc(-c2cnc3nc4ccccc4nc3n2)cc1 discrete_label=1.0
compound=COC(=O)c1n[nH]c(C)c1N=NN1CCC(C(N)=O)CC1 discrete_label=1.0
compound=C=C/C=C/CC=C discrete_label=0.0
compound=Nc1ccc2nc3c(nc2c1)C(=O)c1ccccc1-3 discrete_label=1.0
compound=CNC(=S)N/N=C/c1nccc(-c2ccccc2)c1C discrete_label=1.0
compound="CCOC(=O)C(NC(=O)C(CO)n1c(-c2ccccc2)c(-c2ccccc2)oc1=O)C(=O)OCC (stereo unspecified)" discrete_label=0.0
compound=Cc1cc2nc(CC(=O)c3ccncc3)c(CC(=O)c3ccncc3)nc2cc1C discrete_label=0.0
compound="C[C@]12CCC3[C@@H](CC[C@@H]4c5nonc5CC[C@]34C)C1CCC(=O)N2 (stereo partly specified)" discrete_label=0.0
compound=CCCCCCCCCCCCCCCCOP(=O)([O-])OCC[N+](C)(C)C discrete_label=1.0
compound=Cc1c(CC=C(c2ccccc2)c2ccccc2)cccc1C[N+](C)(C)C discrete_label=1.0
compound=CNC(=O)N1N[C@H](c2ccccc2)[C@@H]1c1ccccc1 discrete_label=0.0
compound=CCN(CC)CCOC(=O)Cc1cccc2c(=O)cc(-c3cccs3)oc12 discrete_label=0.0
compound=COc1ccc(CN=C(N)N)c2ccccc12 discrete_label=0.0
compound=COc1cccnc1/C=N/NC(N)=S discrete_label=0.0
compound="COC(=O)c1ccccc1N=NN(C)CC1OC2OC(C)(C)OC2C1OC (stereo unspecified)" discrete_label=0.0
compound=CCN(CC)CCOc1ccc(/C=C(\C#N)c2ccc(OC)cc2)cc1 discrete_label=1.0
compound=NC(=Nc1cc2ccccc2c2ccccc12)/N=C(/N)Nc1cc2ccccc2c2ccccc12 discrete_label=1.0
compound="O=C(c1ccccc1)C1OC1c1ccccc1Cl (stereo unspecified)" discrete_label=0.0
compound=O=C(CNC(=O)OCc1ccccc1)Oc1ccc([N+](=O)[O-])cc1 discrete_label=0.0
compound=FC(F)(F)C(C1=NC(C(F)(F)F)(C(F)(F)F)N=C(N2CCOCC2)O1)C(F)(F)F discrete_label=0.0
compound=CC(C)Cc1ncc(CC(C)C)n(O)c1=O discrete_label=1.0
compound="O=C1NOCC1N=Cc1cc(Cl)ccc1O (stereo unspecified)" discrete_label=0.0
compound=COC(=O)c1c(C(N)=O)c(C)n(NC(=O)c2ccccc2)c1C discrete_label=0.0
compound=Cn1c(N)c(N=Nc2ccc(S(N)(=O)=O)cc2)c(=O)n(C)c1=O discrete_label=0.0
compound=c1ccc2c(c1)C[n+]1ccc3ccccc3c1-c1c3ccccc3cc[n+]1C2 discrete_label=0.0
compound=CCCCN(CCC=C1c2ccccc2Oc2ccccc21)CCCC discrete_label=1.0
compound=Cc1ccc(SSCCCCCS(=O)O)cc1 discrete_label=0.0
compound=O=[N+]([O-])c1ccc(NCc2ccccc2)c([N+](=O)[O-])c1 discrete_label=1.0
compound="CCCCCCN(CCCCCC)CC(O)c1cc(-c2ccccc2)nc2c(O)cccc12 (stereo unspecified)" discrete_label=1.0
compound=CCC[CH2][Sn]([CH2]CCC)([O]C(=O)c1cccc(F)c1)[O]C(=O)c1cccc(F)c1 discrete_label=0.0
compound=CCOC(=O)N1CCN(c2cc(C)nc3cc(OC)ccc23)CC1 discrete_label=0.0
compound=O=[N+]([O-])c1ccc(C2=CSc3ccccc3N2)cc1 discrete_label=0.0
compound=CC(C)/C=N/N(CCOC(=O)Nc1ccccc1)C(=O)Nc1ccccc1 discrete_label=0.0
compound="C=C1C(=O)OC2C/C(C)=C/CC/C(C)=C/CCC3(COC(C)=O)OC3CC12 (stereo unspecified)" discrete_label=1.0

* * *

# protocol.summary: NCI Yeast Anticancer Drug Screen. Data for the cln2 rad14 strain (AID 165);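 note: 0% = growth equal to vehicle treated cultures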
# condition.parameters: S. cerevisiae cln2 rad14 strain, at 5.0 µM (retest, dose inferred, filed as 0.5), active compounds read high
The panel holds about 79,000 compounds, 15% with a hit somewhere; the sample as a whole holds those more often.
assay.metric: growth inhibition (%)

smiles=O=C(O)c1cc2cc3ccccc3cc2cc1O assay_metric="growth inhibition" units_of_measure=% recorded_number=-1
smiles=O=Cc1cc(O)ccc1Br assay_metric="growth inhibition" units_of_measure=% recorded_number=29
smiles=C[n+]1c(/C=C/c2ccc([N+](=O)[O-])cc2)ccc2ccccc21 assay_metric="growth inhibition" units_of_measure=% recorded_number=12
smiles=Cc1cc(=O)oc2c(C)c3oc(CBr)cc3cc12 assay_metric="growth inhibition" units_of_measure=% recorded_number=32
smiles=CC(=O)O[C@]1(C(C)=O)CC[C@H]2[C@@H]3C[C@H](C)C4=CC(=O)NCC[C@]4(C)[C@H]3CC[C@@]21C assay_metric="growth inhibition" units_of_measure=% recorded_number=6
smiles=c1cc(NC2CCCCC2)ccc1CN1CCOCC1 assay_metric="growth inhibition" units_of_measure=% recorded_number=72

* * *

# protocol.summary: NCI Yeast Anticancer Drug Screen. Data for the mlh1 rad18 strain (AID 175)
# condition.parameters: S. cerevisiae mlh1 rad18 strain growth inhibition; at 50.0 µM (retest, dose inferred, filed as 5.0); active compounds read high
# Experimental: Growth inhibition of yeast strains with defined genetic alterations is measured as a screen for potential anti-cancer activity. Selected strains with alterations in DNA damage repair or cell cycle control were exposed to compounds and growth inhibition was measured relative to vehicle treated controls. The strain used in this assay is mlh1 rad18
Compounds without any hit were thinned out: in the full panel of roughly 79,000, 15% have a hit.
# Lookup of reported growth inhibition keyed by entry
assay.metric: growth inhibition (%)

compound="CC1=NN(C(=O)c2ccc(Cl)cc2)C(=O)C1N=Nc1ccc(S(=O)(=O)Nc2ncccn2)cc1 (stereo not given)" units_of_measure=% recorded_number=20
compound=COC(=O)c1cc(-c2ccccc2)[nH]c(=O)c1C#N units_of_measure=% recorded_number=-21
compound=CC(C)c1ccc(C(=O)OC2CCCCC2)cc1 units_of_measure=% recorded_number=96
compound="CCc1ccccc1NC(=O)C1=C(C)NC(C)=C(C(=O)Nc2c(CC)cccc2CC)C1c1ccc2c(c1)OCO2 (stereo not given)" units_of_measure=% recorded_number=28
compound="CCCCCCC(C)c1ccccc1O (stereo not given) (tested in a mixture with another compound)" units_of_measure=% recorded_number=99
compound="C1=C(c2ccccc2)C(c2ccc(OCCN3CCCCC3)cc2)Oc2ccccc21 (stereo not given)" units_of_measure=% recorded_number=99
compound=O=C1/C(=C/c2ccccc2)CCCc2ccccc21 units_of_measure=% recorded_number=73
compound=NC(=Nc1cc2ccccc2c2ccccc12)/N=C(/N)Nc1cc2ccccc2c2ccccc12 units_of_measure=% recorded_number=98
compound=CCC(CC)(C(=O)Nc1ccc2c(c1)c(=O)c1ccccc1n2C)C(=O)Nc1ccc2c(c1)c(=O)c1ccccc1n2C units_of_measure=% recorded_number=92
compound=CC1=C(C(=O)Nc2ccccc2)C(c2ccccc2F)C(C(=O)Nc2ccccc2)=C(C)N1 units_of_measure=% recorded_number=47
